src = paper PMC10424183

Tested on: BCL6 BTB (Homo sapiens, UniProt P41182)
Construct: made in house
Test description: R2KD ligand-observed 1H NMR assay (Kd from transverse relaxation rate R2)
Type: binding
Experimental conditions: single experiment, four peaks, global Kd fitting; unit inferred; read-out: Kd, global (shared) fit
Readout: Kd (µM)
Report only the number, with the unit µM understood.

Could you share what Kd was measured for `Cc1cc(Nc2ccc(F)cc2)n2ncnc2n1` , tested on BCL6 BTB (Homo sapiens, UniProt P41182)?
905

====

Tested on: BCL6 BTB (Homo sapiens, UniProt P41182)
Construct: made in house
Test description: R2KD ligand-observed 1H NMR assay (Kd from transverse relaxation rate R2)
Type: binding
Experimental conditions: 5 μM protein, peak 3; read-out: Kd at 5 μM protein
Readout: pKd
When answering, recall that pKd equals minus log10 of the concentration in mol/L, and write that number alone.

Which pKd value belongs to Cc1nccc(Nc2cnn(CCO)c2)c1C#N [CCT365133] ?
4.15

====

Tested on: BCL6 BTB (Homo sapiens)
Construct: made in house
Test description: R2KD ligand-observed 1H NMR assay (Kd from transverse relaxation rate R2)
Format: binding
Experimental conditions: simplified graphical presentation; unit inferred; read-out: KD, curve fitting using calculated bound ligand concentration [PL]
Readout: Kd (µM)
Numeric answer only, unit µM assumed.

GET /values?readout=Kd&item= `Cc1nccc(Nc2cnn(CCO)c2)c1C#N`
57

====

Readout: pKd
FYI, pKd means -log10 of a concentration in mol per litre.

Tell me reported pKd for `O=C(O)c1cccc(S(=O)(=O)Nc2ccccc2N2CCCCC2)c1` , tested with ERAP1 (Homo sapiens, UniProt Q9NZ08).
Sequence (Q9NZ08 whole entry, species assumed): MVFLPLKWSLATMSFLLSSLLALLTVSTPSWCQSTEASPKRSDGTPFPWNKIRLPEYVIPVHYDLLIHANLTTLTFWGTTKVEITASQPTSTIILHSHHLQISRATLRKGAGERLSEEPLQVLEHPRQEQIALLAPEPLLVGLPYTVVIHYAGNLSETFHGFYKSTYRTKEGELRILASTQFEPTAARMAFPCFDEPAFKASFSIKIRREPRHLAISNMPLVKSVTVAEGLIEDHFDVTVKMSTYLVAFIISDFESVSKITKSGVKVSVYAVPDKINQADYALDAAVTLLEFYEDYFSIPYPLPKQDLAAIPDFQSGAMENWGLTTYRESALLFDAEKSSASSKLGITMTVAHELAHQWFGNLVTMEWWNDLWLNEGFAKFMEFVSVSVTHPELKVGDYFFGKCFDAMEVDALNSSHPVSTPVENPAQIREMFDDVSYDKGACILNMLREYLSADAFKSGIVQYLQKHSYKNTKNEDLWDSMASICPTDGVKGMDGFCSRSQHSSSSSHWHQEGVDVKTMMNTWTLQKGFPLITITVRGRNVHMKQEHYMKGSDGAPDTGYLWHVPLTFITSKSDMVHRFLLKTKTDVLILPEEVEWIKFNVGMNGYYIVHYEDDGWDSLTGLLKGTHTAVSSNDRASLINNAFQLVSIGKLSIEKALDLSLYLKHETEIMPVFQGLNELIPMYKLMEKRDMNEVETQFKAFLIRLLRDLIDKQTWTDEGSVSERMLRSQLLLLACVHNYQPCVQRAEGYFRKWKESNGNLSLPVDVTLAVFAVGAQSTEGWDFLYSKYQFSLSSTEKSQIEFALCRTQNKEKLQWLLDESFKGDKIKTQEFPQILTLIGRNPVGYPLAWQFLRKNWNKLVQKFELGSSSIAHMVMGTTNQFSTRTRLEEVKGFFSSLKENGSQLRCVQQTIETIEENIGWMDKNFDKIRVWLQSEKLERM
3.71

====

Tested on: BCL6 BTB (Homo sapiens)
Construct: made in house
Test description: R2KD ligand-observed 1H NMR assay (Kd from transverse relaxation rate R2)
Assay type: binding
Experimental conditions: R2KD assay upper detection limit example; read-out: largest Kd determined accurately
Readout: Kd

What does the record list as Kd for `Cc1cc(Nc2ccc(F)cc2)n2ncnc2n1` ?
~1000 µM

====

Tested on: CRBN/DDB1 complex (Homo sapiens, UniProt Q96SW2)
Construct: made in house
Sequence (Q96SW2 40-442 limits assumed, species assumed, one chain of several): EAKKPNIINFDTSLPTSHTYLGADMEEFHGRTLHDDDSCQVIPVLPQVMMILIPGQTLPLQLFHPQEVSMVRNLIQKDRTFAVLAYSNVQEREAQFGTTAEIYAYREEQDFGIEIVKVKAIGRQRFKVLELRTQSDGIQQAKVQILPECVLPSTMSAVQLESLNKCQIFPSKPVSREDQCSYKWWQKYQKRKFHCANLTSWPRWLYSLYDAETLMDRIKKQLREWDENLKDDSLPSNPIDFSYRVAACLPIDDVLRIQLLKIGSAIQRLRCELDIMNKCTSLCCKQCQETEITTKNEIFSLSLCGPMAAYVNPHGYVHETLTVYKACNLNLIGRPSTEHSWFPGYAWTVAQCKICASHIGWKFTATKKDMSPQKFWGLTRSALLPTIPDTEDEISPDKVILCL
Test description: R2KD ligand-observed 1H NMR assay (Kd from transverse relaxation rate R2)
Type: binding
Experimental conditions: R2KD assay, Δ39CRBN/ΔBPBDDB1 complex, repeated three times (average); read-out: Kd
Assign pKd to each entry below.
pKd here is simply -log10 of the concentration when that concentration is written in mol/L.

Report pKd for `COC(=O)c1ccc2c(c1)NC(=O)CO2` please.
4.06

So what does the record say about pKd for `Cc1ccc(N2CC(=O)NC2=O)cc1` ?
3.81

====

Tested on: BCL6 BTB (Homo sapiens, UniProt P41182)
Construct: made in house
Test description: R2KD ligand-observed 1H NMR assay (Kd from transverse relaxation rate R2)
Assay type: binding
Experimental conditions: 5 μM BCL6; individual peak fit; unit inferred; read-out: Kd fitted using individual peak, Peak 3
Readout: pKd
For clarity, pKd is expressed as the negative log10 of concentration in mol/L.

API: value(readout=pKd, system=BCL6 BTB (Homo sapiens, UniProt P41182)) for record Cc1nccc(Nc2cnn(CCO)c2)c1C#N [CCT365133]
4.11

====

Tested on: CRBN/DDB1 complex (Homo sapiens)
Construct: made in house
Test description: R2 values of fragment hits at two ligand concentrations (preliminary ranking)
Format: binding
Experimental conditions: 200 μM ligand, 2 μM CRBN/DDB1 complex
Readout: average R2, compound at 200 μM

For `COc1ccc(C(=O)N2CCN(c3ccccn3)CC2)cc1` , what is its reported average R2, compound at 200 μM?
1.3

Requested read-out: average R2, compound at 200 μM. Entry: `CNC(=O)c1nc(-c2ccccc2)n(-c2ccccc2)n1`
1.4

// returns reported average R2, compound at 200 μM for input CCOc1ccc(C2CNC(=O)C2)cc1 (stereo not drawn)
2.4

I would be grateful if you could share the reported average R2, compound at 200 μM for CCOc1cccc(C2CC(=O)NC3=C2C(=O)CCC3)c1 (stereo not drawn) .
1.5

Which average R2, compound at 200 μM is listed for `O=c1ccn(Cc2ccccc2)c(=O)[nH]1` ?
1.2

// query average R2, compound at 200 μM value for entry `COC(=O)c1ccc2c(c1)NC(=O)CO2`
2.6
